# Experimental target: Recombinant human his-tagged IGF 1R extracellular domain protein (human) (UniProt P08069)
# Assay notes: SPR, captured antibody, pH 7.4
Parameter: Kd
Phrase the answer as number then unit, nothing more needed.

Kd reported for this binder VRDN-03041 (antibody, V domains shown) VH: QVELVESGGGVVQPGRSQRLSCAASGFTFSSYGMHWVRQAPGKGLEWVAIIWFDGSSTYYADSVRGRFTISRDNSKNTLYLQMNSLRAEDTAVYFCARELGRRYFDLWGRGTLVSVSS VL: EIVLTQSPATLSLSPGERATLSCRASHSVSSYLAWYQQKPGQAPRLLIYDASKRATGIPARFSGSGSGTDFTLTISSLEPEDFAVYYCQQRSKWPPWTFGQGTKVESK : 3.16 nM

The reported measurements were obtained from patent US20240352133A1.
